biological target: RSV N-RNA complex (Human respiratory syncytial virus A); construct: Full-length N was produced by co-expression with the C-terminal domain of RSV P protein in E. coli BL21(DE3); made in house; host or cells: E. coli BL21(DE3), co-transformed with pET-N and pGEX-P(161–241); assay: Fluorescence polarization inhibition of N-RNA binding to fluorescent probes; settings: probe BCN5E, [N-RNA] 2 and 20 µM; read-out: Ki values for inhibition of BCN5E
Sequence (P03418 whole entry, looked up, the tested form may be a part, one chain of several): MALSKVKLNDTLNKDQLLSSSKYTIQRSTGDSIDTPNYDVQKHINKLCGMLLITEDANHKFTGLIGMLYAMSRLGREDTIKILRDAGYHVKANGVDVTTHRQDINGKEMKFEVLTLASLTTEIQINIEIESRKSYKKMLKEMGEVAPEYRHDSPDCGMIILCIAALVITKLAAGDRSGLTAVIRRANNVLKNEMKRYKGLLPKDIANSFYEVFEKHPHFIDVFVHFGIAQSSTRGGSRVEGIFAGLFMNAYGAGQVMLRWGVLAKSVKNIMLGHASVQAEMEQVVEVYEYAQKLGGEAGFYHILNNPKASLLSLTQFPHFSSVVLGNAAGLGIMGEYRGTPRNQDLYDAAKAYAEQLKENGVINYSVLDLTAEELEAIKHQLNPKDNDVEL
Endpoint Label: Ki

Per the record, `O=C(O)c1cc(C(=O)O)n(Cc2ccc(Cl)cc2Cl)n1` has Ki of 3.6 to 4.8 µM
